Biological target: 5-HT2A (Homo sapiens, UniProt P28223)
Sequence (P28223 whole entry): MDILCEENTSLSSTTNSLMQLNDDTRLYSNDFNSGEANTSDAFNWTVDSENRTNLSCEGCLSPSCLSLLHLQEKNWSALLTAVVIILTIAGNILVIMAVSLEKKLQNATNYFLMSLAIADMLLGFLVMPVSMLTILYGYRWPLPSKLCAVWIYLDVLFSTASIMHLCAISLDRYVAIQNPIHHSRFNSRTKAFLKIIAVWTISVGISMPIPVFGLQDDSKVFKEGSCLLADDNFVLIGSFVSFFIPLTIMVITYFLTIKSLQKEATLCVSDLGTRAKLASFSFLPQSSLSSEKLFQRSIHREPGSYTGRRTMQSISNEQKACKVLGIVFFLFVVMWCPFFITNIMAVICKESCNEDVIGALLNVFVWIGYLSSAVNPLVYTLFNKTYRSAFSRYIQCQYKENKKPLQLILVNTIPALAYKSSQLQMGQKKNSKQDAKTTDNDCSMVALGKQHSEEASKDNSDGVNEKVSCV
Experiment: cell-based
Design: expressed in transfected cells; host or cells: HEK293T, transient
Details: BRET, mean ± SEM; read-out: 5-HT2A β-arrestin recruitment pEC50 (converted)

{"COMPOUND": "COc1cc(OC)c(OC)cc1CCNCc1cccc(C)c1O", "DISPLAY_UNIT": "nM", "EC50": 1.41}
{"COMPOUND": "COc1cc(CCNCc2ccccc2OC)c(OC)cc1I [Compound 25I-NBOMe, reference compound]", "DISPLAY_UNIT": "nM", "EC50": 0.525}
{"COMPOUND": "COc1cc(Br)c(Br)c(OC)c1CCNCc1cccc2ccccc12", "DISPLAY_UNIT": "nM", "EC50": 1.95}
{"COMPOUND": "COc1cc(OC)c(OC)cc1CCNCc1cccc(I)c1F", "DISPLAY_UNIT": "nM", "EC50": 7.08}
{"COMPOUND": "COc1cc(OC)c(OC)cc1CCNCc1cccc2c1oc1ccccc12", "DISPLAY_UNIT": "nM", "EC50": 16.2}
{"COMPOUND": "COc1cc(CCNCc2cccc3ccccc23)cc(OC)c1Br", "DISPLAY_UNIT": "nM", "EC50": 35.5}
{"COMPOUND": "COc1cc(Br)cc(OC)c1CC(C)NCc1cccc2ccccc12 (stereo not shown)", "DISPLAY_UNIT": "nM", "EC50": 4.9}
{"COMPOUND": "COc1cc(OC)c(OC)cc1CCNCc1cccc(C(C)(C)C)c1", "DISPLAY_UNIT": "nM", "EC50": 1620}
{"COMPOUND": "COc1cc(OC)c(OC)cc1CCNCc1ccccc1C1CC1", "DISPLAY_UNIT": "nM", "EC50": 6.92}
{"COMPOUND": "COc1cc(Br)c(CCNCc2cccc3ccccc23)cc1OC", "DISPLAY_UNIT": "nM", "EC50": 4.47}

* * *

Target: 5-HT2C (Homo sapiens)
Experiment: BRET Gq dissociation, 5-HT2C
Type: cell-based
Parameters: expressed in transfected cells; host or cells: HEK293T, transient
Details: read-out: 5-HT2C Gq Dissociation (BRET) pEC50 ± SEM (converted)
Method: After at least 18-24 hours, transfected cells were plated in poly-lysine coated 96-well white clear bottom cell culture plates in DMEM containing 1% dialyzed FBS at a density of 25-40,000 cells in 200 μL per well and incubated overnight. […] Fifteen minutes before reading, 10 μL of the RLuc substrate, either coelenterazine h for β-Arrestin recruitment BRET^1 or coelenterazine 400a for Gq dissociation BRET^2 (Prolume/Nanolight, 5 μM final concentration) was addedper well. […]
Consider the following compounds and their measured EC50 readings.

{"CHEMICAL_STRUCTURE": "COc1cc(Br)ccc1CCNCc1cccc2ccccc12", "TESTED_ON": "5-HT2C (Homo sapiens)", "DISPLAY_UNIT": "nM", "EC50": 24.5}
{"CHEMICAL_STRUCTURE": "COc1cc(Br)cc(OC)c1CCNCc1cccc(C)c1O", "TESTED_ON": "5-HT2C (Homo sapiens)", "DISPLAY_UNIT": "nM", "EC50": 1.51}
{"CHEMICAL_STRUCTURE": "COc1cc(CCNCc2cccc3ccccc23)ccc1Cl", "TESTED_ON": "5-HT2C (Homo sapiens)", "DISPLAY_UNIT": "nM", "EC50": 97.7}
{"CHEMICAL_STRUCTURE": "COc1cc(OC)c(OC)cc1CCNCc1cccc(-c2ccccc2)c1O", "TESTED_ON": "5-HT2C (Homo sapiens)", "DISPLAY_UNIT": "nM", "EC50": 51.3}
{"CHEMICAL_STRUCTURE": "COc1cc(OC)c(OC)cc1CCNCc1cccc2ccccc12", "TESTED_ON": "5-HT2C (Homo sapiens)", "DISPLAY_UNIT": "nM", "EC50": 12.6}
{"CHEMICAL_STRUCTURE": "COc1cc(OC)c(OC)cc1CCNCc1cccc(F)c1F", "TESTED_ON": "5-HT2C (Homo sapiens)", "DISPLAY_UNIT": "nM", "EC50": 200}

* * *

Target: 5-HT2C (Homo sapiens, UniProt P28335)
Sequence (P28335 33-458): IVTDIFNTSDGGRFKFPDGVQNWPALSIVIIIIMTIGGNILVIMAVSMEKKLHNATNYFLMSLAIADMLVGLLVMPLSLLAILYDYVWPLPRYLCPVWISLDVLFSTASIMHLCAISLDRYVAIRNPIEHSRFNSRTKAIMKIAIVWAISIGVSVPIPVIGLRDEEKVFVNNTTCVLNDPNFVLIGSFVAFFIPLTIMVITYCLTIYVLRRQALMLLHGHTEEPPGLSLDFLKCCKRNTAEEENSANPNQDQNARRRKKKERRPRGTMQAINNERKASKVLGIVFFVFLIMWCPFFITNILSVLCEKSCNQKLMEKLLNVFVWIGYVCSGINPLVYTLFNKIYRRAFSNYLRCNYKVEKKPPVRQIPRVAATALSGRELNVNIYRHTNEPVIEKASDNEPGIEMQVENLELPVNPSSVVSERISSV
Assay: Ca2+ flux assay, 5-HT2C
Type: cell-based
Design: expressed in transfected cells
Conditions: read-out: 5-HT2C EC50
pEC50: −log10 of the molar value.
ATTRIBUTE_MEASURED: pEC50

{"COMPOUND": "COc1cc([N+](=O)[O-])c(OC)cc1CCNCc1ccccc1OC(F)(F)F [25N-NBOCF3 (12)]", "ATTRIBUTE_MEASURED": "pEC50", "READOUT_NUMBER": 7.23}

* * *

Test system: male C57BL/6J mice
Assay: Head-twitch response (HTR) in mice
Type: in vivo, mouse

{"COMPOUND": "COc1cc(OC)c(OC)cc1CCNCc1ccccc1-c1cccs1 [(59)]", "Induction of the HTR in mice (in words)": "lacked a HTR"}
{"COMPOUND": "COc1cc(OC)c(OC)cc1CCNCc1cccc2ccccc12 [(38)]", "Induction of the HTR in mice (in words)": "failed to induce a HTR"}
{"COMPOUND": "COc1cc([N+](=O)[O-])c(OC)cc1CCNCc1cccc2ccccc12 [25N-N-1-Nap (16)]", "Induction of the HTR in mice (in words)": "failed to induce the HTR"}
{"COMPOUND": "COc1cc2c(cc1CCNCc1cccc3ccccc13)OCO2 [(39)]", "Induction of the HTR in mice (in words)": "failed to induce a HTR"}
{"COMPOUND": "COc1cc(OC)c(OC)cc1CCNCc1cccc(I)c1 [(53)]", "Induction of the HTR in mice (in words)": "failed to induce the HTR"}
{"COMPOUND": "COc1cc([N+](=O)[O-])c(OC)cc1CCNCc1ccccc1-c1ccccc1 [25N-NBPh (17)]", "Induction of the HTR in mice (in words)": "lacked a HTR"}

* * *

Target: 5-HT2B (Homo sapiens, UniProt P41595)
Sequence (P41595 whole entry): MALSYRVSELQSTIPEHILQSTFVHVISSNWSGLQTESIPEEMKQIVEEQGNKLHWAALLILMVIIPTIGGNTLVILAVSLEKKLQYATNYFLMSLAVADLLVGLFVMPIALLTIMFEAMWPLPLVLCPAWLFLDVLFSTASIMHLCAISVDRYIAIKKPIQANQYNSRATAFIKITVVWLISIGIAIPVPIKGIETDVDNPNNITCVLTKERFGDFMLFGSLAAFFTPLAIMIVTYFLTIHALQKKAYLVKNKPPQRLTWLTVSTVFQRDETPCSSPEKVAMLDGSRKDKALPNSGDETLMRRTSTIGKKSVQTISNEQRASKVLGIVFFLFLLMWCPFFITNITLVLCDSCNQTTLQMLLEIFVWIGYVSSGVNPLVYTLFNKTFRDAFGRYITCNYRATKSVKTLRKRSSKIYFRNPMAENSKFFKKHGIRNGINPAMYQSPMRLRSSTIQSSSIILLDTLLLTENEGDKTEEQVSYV
Assay: Ca2+ flux assay, 5-HT2B
Type: cell-based
Design: expressed in transfected cells
ATTRIBUTE_MEASURED: EC50 (µM)

{"MOLECULE": "COc1cc([N+](=O)[O-])c(OC)cc1CCN [2C-N (1), reference compound]", "DISPLAY_UNIT": "µM", "READOUT_NUMBER": 0.0503}

* * *

Target: 5-HT2A (Homo sapiens, UniProt P28223)
Experiment: cell-based
Set-up: expressed in transfected cells; host or cells: HEK293T, transient
Settings: BRET, mean ± SEM; read-out: 5-HT2A Gq dissociation pEC50 (converted)
Please use true (1) for EC50 under 9 nM and false (0) for everything else, ties included.

{"MOLECULE": "COc1cc(Br)cc(OC)c1CCNCc1cccc(C)c1O", "CLASS_ASSIGNMENT": "true (1)"}
{"MOLECULE": "COc1cc(OC)c(OC)cc1CCNCc1ccccc1-c1cccs1", "CLASS_ASSIGNMENT": "false (0)"}
{"MOLECULE": "COc1cc(Br)c(CCNCc2cccc3ccccc23)cc1OC", "CLASS_ASSIGNMENT": "false (0)"}
{"MOLECULE": "COc1cc(CCNC2Cc3ccccc3C2)c(OC)cc1C", "CLASS_ASSIGNMENT": "false (0)"}
{"MOLECULE": "COc1cc2c(cc1CCNCc1cccc3ccccc13)OCO2", "CLASS_ASSIGNMENT": "false (0)"}
{"MOLECULE": "Brc1c2c(c(CCNCc3cccc4ccccc34)c3c1OCC3)OCC2", "CLASS_ASSIGNMENT": "true (1)"}
{"MOLECULE": "COc1cc(OC)c(OC)cc1CCNCc1cccc2cnccc12", "CLASS_ASSIGNMENT": "false (0)"}
{"MOLECULE": "COc1cc(CCNCc2ccccc2OC)c(OC)cc1I [Compound 25I-NBOMe, reference compound]", "CLASS_ASSIGNMENT": "true (1)"}
{"MOLECULE": "COc1cc(OC)c(OC)cc1CCNCc1cccc(I)c1O", "CLASS_ASSIGNMENT": "false (0)"}
{"MOLECULE": "COc1cc(Br)cc(OC)c1CCNCc1cccc2ccccc12", "CLASS_ASSIGNMENT": "true (1)"}
{"MOLECULE": "COc1cc(OC)c(OC)cc1CCNCc1cccc2ccccc12", "CLASS_ASSIGNMENT": "true (1)"}
{"MOLECULE": "COc1cc(CCNCc2cccc(C)c2O)ccc1Cl", "CLASS_ASSIGNMENT": "false (0)"}
{"MOLECULE": "COc1cc(Cl)ccc1CC(C)NCc1cccc(C)c1O (stereo not shown)", "CLASS_ASSIGNMENT": "true (1)"}
{"MOLECULE": "COc1cc(OC)c(OC)cc1CCNCc1cccc2c1CCC2", "CLASS_ASSIGNMENT": "true (1)"}
{"MOLECULE": "COc1cc(Br)c(Br)c(OC)c1CCNCc1cccc(C)c1O", "CLASS_ASSIGNMENT": "true (1)"}
{"MOLECULE": "COc1cc(OC)c(OC)cc1CCNCc1cccc(C)c1C", "CLASS_ASSIGNMENT": "true (1)"}
{"MOLECULE": "COc1cc(OC)c(OC)cc1CCNCc1ccccc1-c1ccco1", "CLASS_ASSIGNMENT": "false (0)"}
{"MOLECULE": "COc1cc(OC)c(OC)cc1CCNCc1cccc(I)c1F", "CLASS_ASSIGNMENT": "false (0)"}
{"MOLECULE": "COc1cc(CCNCc2cccc(C)c2O)cc(OC)c1Br", "CLASS_ASSIGNMENT": "false (0)"}
{"MOLECULE": "COc1cc(Br)ccc1CCNCc1cccc(C)c1O", "CLASS_ASSIGNMENT": "true (1)"}
{"MOLECULE": "COc1cc(CCNC2CCc3cccc(O)c32)c(OC)cc1C (stereo not shown)", "CLASS_ASSIGNMENT": "true (1)"}
{"MOLECULE": "COc1cc(OC)c(OC)cc1CCNCc1cccc(C)c1O", "CLASS_ASSIGNMENT": "true (1)"}
